assay: Solubilities at room temperature (20-25° C.) in groundnut oil and groundnut oil/liquid paraffin 1:9; type: physicochemical; settings: groundnut oil
experimental.endpoint: Solubility at room temperature in groundnut oil (%)
All answers are understood in %, so give the number only.

Some compounds with known Solubility at room temperature in groundnut oil (%) results, for comparison:
[
  {
    "compound": "COc1ccc(C(=O)CC(=O)c2ccc(OC)cc2)cc1",
    "readout.number": 1
  },
  {
    "compound": "CCCCOC(=O)C(C#N)=Cc1ccc(OC)cc1",
    "readout.number": 17
  },
  {
    "compound": "O=C(c1ccc(O)cc1O)c1ccc(O)cc1O [(2), 2,2',4,4'-tetrahydroxybenzophenone]",
    "readout.number": 0.8
  },
  {
    "compound": "CCCCCCCCCCCCOC(=O)C(C#N)=Cc1ccc(OC)cc1",
    "readout.number": 14
  },
  {
    "compound": "CCCCCCCOC(=O)C(C#N)=Cc1ccc(OC)cc1",
    "readout.number": 33
  }
]

Any idea what its Solubility at room temperature in groundnut oil (%) is? The compound is CCCCCCCCCOC(=O)C(C#N)=Cc1ccc(OC)cc1
55

###

assay: UV absorption spectral data (wavelength λmax, molar extinction ε, specific extinction E1^1); type: physicochemical; settings: Table 1; in M-1cm-1
experimental.endpoint: Molar extinction ε

[
  {
    "structure.notation": "COC(=O)C(C#N)=Cc1ccc(OC)cc1",
    "Molar extinction ε": "29,300"
  },
  {
    "structure.notation": "C=C(C)C(=O)Oc1ccc(C=C(C#N)C(=O)OC)cc1",
    "Molar extinction ε": "23,000"
  },
  {
    "structure.notation": "COC(=O)C(C#N)=Cc1ccc(O)c(OC)c1",
    "Molar extinction ε": "22,400"
  },
  {
    "structure.notation": "COC(=O)C(C#N)=C(C)c1ccc(OC)cc1",
    "Molar extinction ε": "10,900"
  },
  {
    "structure.notation": "COC(=O)C(C#N)=Cc1ccc(C)cc1",
    "Molar extinction ε": "25,000"
  },
  {
    "structure.notation": "COC(=O)C(C#N)=Cc1ccco1",
    "Molar extinction ε": "27,000"
  },
  {
    "structure.notation": "COC(=O)C(C#N)=Cc1cccc(OC)c1",
    "Molar extinction ε": "15,300"
  },
  {
    "structure.notation": "COc1ccc(C=C(C(=O)OCC(C)C)C(=O)OCC(C)C)cc1",
    "Molar extinction ε": "24,800"
  }
]

Tell me the measured Molar extinction ε of COC(=O)C(C#N)=C(c1ccccc1)c1ccccc1 , please.
14,000

And then CCOC(=O)C(=Cc1ccc(O)c(OC)c1)C(=O)OCC , what is it?
20,750

What do you get for COC(=O)C(C#N)=Cc1ccccc1OC ?
10,300

Another: COC(=O)C(C#N)=Cc1ccc(OC)c(OC)c1
24,000

###

Specific extinction E1^1: recorded values
test: UV absorption spectral data (wavelength λmax, molar extinction ε, specific extinction E1^1); assay type: physicochemical; details: Table II
API note: the answer field is a bare number with no unit suffix.

Known Specific extinction E1^1 results, listed for orientation:
[
  {
    "molecule": "CCCCCCCOC(=O)C(C#N)=Cc1ccc(OC)cc1 [n-Heptyl]",
    "readout.number": 940
  },
  {
    "molecule": "CCCCCCCCCOC(=O)C(C#N)=Cc1ccc(OC)cc1 [n-Nonyl]",
    "readout.number": 910
  },
  {
    "molecule": "CCCCCCOC(=O)C(C#N)=Cc1ccc(OC)cc1 [n-Hexyl]",
    "readout.number": 990
  },
  {
    "molecule": "COc1ccc(C(=O)c2cc(S(=O)(=O)O)c(OC)cc2O)c(O)c1 [(1)]",
    "readout.number": 160
  },
  {
    "molecule": "O=C(c1ccc(O)cc1O)c1ccc(O)cc1O [(2), 2,2',4,4'-tetrahydroxybenzophenone]",
    "readout.number": 645
  },
  {
    "molecule": "CCCCCCCCCCOC(=O)C(C#N)=Cc1ccc(OC)cc1 [n-Decyl]",
    "readout.number": 810
  },
  {
    "molecule": "CCCCCCCCCCCCOC(=O)C(C#N)=Cc1ccc(OC)cc1 [n-Dodecyl]",
    "readout.number": 770
  }
]

Let's switch to this molecule now.
Given the molecule CCCCCCCCOC(=O)C(C#N)=Cc1ccc(OC)cc1 [n-Octyl] , what is its reported Specific extinction E1^1?
970

Origin of values: patent US4284621A
